Experiment: RAM signaling pathway blockade in yeast – S. cerevisiae, Pdr1DBD-CYC8 efflux-inhibited sensitized strain, primary screen (AID 1298);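 also: 0% = DMSO untreated cells without growth and 100% = 10 µM 1-NA-PP1 full growth; higher means more yeast growth rescued from 5-FOA killing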
Conditions: S. cerevisiae cbk1-as DSE1-URA3 strain, 5-FOA growth OD615, 2 d; at 50 µM; stronger effect = higher value

compound: O=C(CC(c1ccccc1)c1ccccc1)NCCO
RAM network inhibition / %: 5.36
--
compound: O=C(OCN1C(=O)c2ccccc2C1=O)c1cccs1
RAM network inhibition / %: 1.51
--
compound: CCOC(=O)N1CCC(NC(=O)Cn2cc3c(n2)CCCCC3)CC1
RAM network inhibition / %: 0.41
--
compound: O=C(Nc1cccc(F)c1)c1ccc(S(=O)(=O)N2CCCC2)cc1
RAM network inhibition / %: -0.43
--
compound: O=C(c1ccc(CS(=O)(=O)c2ccc(Br)cc2)o1)N1CCN(c2ccccn2)CC1
RAM network inhibition / %: 4.8
--
compound: CC1Cc2nc(SCC(=O)N3CCOCC3)n(-c3ccccc3)c(=O)c2S1 (stereo unspecified)
RAM network inhibition / %: 0.95
--
compound: Cn1c2c(c(=O)n(C)c1=O)C(c1cc3c(cc1Br)OCO3)CC(=O)N2 (stereo unspecified)
RAM network inhibition / %: 4.1
--
compound: COc1ccc(C2N3CC4(C)CN2CC(C)(C3)C4=O)cc1OC (stereo unspecified)
RAM network inhibition / %: 0.11
--
compound: CCC1Oc2nc(SC)nnc2-c2ccccc2N1C(=O)c1ccccc1 (stereo unspecified)
RAM network inhibition / %: 3.93
--
compound: CCN(CC)S(=O)(=O)c1ccc(C(=O)Nc2ccc(OCC(=O)N3CCOCC3)cc2)cc1
RAM network inhibition / %: 4.45
--
compound: O=C(Nc1ccc2oc(-c3ccccc3)nc2c1)c1ccncc1
RAM network inhibition / %: 1.62
